The measurements presented in this section are drawn from patent US20080293683A1.

Form field: IC50 (one value per entry).
measured target: recombinant human ERβ (Homo sapiens, UniProt Q92731)
Construct: purchased PanVera Corporation (Madison, Wis.); host or cells: baculovirus-mediated expression system
Sequence (Q92731 whole entry): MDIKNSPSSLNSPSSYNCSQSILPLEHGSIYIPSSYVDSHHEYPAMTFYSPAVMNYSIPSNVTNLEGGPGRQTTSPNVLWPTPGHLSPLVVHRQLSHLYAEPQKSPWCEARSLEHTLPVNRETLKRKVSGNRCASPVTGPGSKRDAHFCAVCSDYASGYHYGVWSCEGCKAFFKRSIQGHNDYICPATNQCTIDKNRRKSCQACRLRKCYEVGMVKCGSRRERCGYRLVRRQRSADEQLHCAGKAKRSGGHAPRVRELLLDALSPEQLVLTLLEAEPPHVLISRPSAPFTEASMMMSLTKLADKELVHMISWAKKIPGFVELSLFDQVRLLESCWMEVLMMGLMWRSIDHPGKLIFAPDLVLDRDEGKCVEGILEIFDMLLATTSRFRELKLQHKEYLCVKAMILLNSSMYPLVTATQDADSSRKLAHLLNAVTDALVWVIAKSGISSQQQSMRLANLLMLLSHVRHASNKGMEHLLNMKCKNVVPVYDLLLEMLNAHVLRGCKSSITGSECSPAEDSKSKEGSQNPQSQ
test description: ERβ binding assay: competition of [3H]E2 binding by competing estrogens
experimental parameters: [3H]E2 10 nM, competitor up to 1000 nM; read-out: ERβ IC50

- molecule: "C[C@]12CC[C@@H]3c4ccc(O)cc4C[C@@H](CCCCCCOCc4ccccc4)[C@H]3[C@@H]1CC[C@@H]2O [E2-7α-(CH2)6OC6H5, 7α-(6-Benzyloxyhexanyl)-17β-estradiol]"
  result: "63.1 nM"
- molecule: "C[C@]12CCc3c(ccc4cc(O)ccc34)[C@@H]1CC[C@@H]2O [17β-Dihydroequilenin]"
  result: "8.9 nM"
- molecule: "COc1cc2c(cc1O)CC[C@@H]1[C@@H]2CC[C@]2(C)[C@@H](O)CC[C@@H]12 [2-MeO-E2, 2-Methoxyestradiol]"
  result: "631 nM"
- molecule: "CC(=O)OC1C[C@]2(C)[C@@H](O)CC[C@H]2[C@@H]2CCc3cc(O)ccc3[C@@H]12 (stereo partly drawn) [11-Acetate-E2, 17β-Estradiol 11-acetate]"
  result: "19.9 nM"

Continue with the molecule presented below.
Item COc1cc2c(cc1O)CC[C@@H]1[C@@H]2CC[C@]2(C)C(=O)CC[C@@H]12 [2-MeO-E1, 2-Methoxyestrone] : provide IC50
> 1000 nM

* * *

measured target: recombinant human ERα (Homo sapiens, UniProt P03372)
Construct: purchased PanVera Corporation (Madison, Wis.); host or cells: baculovirus-mediated expression system
test description: ERα binding assay: competition of [3H]E2 binding by competing estrogens
experimental parameters: calculated against E2 = 100
# if value of RBAα % (relative binding affinity for ERα, of E2) reaches 7%, tag rule met; if it stays below, tag rule not met

- compound: "C[C@]12CC[C@@H]3c4ccc(O)cc4C(=O)C[C@H]3[C@@H]1CC[C@H]2O [6-Keto-E2-17α, 6-Ketoestradiol-17α]"
  measured target: "recombinant human ERα (Homo sapiens, UniProt P03372)"
  answer label: "rule not met"
- compound: "Cc1cc(O)cc2c1[C@H]1CC[C@]3(C)[C@@H](O)CC[C@H]3[C@@H]1CC2 [1-Methyl-E2, 1-Methylestradiol]"
  measured target: "recombinant human ERα (Homo sapiens, UniProt P03372)"
  answer label: "rule met"
- compound: "CC12CCC3c4ccc(O)cc4CCC3C1CC(=O)C2=O (stereo not shown) [16-Keto-E1, 16-Ketoestrone]"
  measured target: "recombinant human ERα (Homo sapiens, UniProt P03372)"
  answer label: "rule not met"
- compound: "C[C@]12CC[C@@H]3c4ccc(O)cc4C[C@@H](CCCCCCO)[C@H]3[C@@H]1CC[C@@H]2O [E2-7α-(CH2)6OH, 7α-(6-Hydroxyhexanyl)-17β-estradiol]"
  measured target: "recombinant human ERα (Homo sapiens, UniProt P03372)"
  answer label: "rule met"
- compound: "C[C@@]12C=CC[C@H]1[C@@H]1CCc3cc(O)ccc3[C@H]1CC2"
  measured target: "recombinant human ERα (Homo sapiens, UniProt P03372)"
  answer label: "rule met"

# evaluate next
Given CC12CCC3c4ccc(O)c(N)c4CCC3C1CCC2=O (stereo not shown) [4-NH2-E1, 4-Aminoestrone] , state whether its RBAα % (relative binding affinity for ERα, of E2) is at least 7%.
rule not met

* * *

Form field: IC50 (one value per entry).
measured target: recombinant human ERα (Homo sapiens, UniProt P03372)
Construct: purchased PanVera Corporation (Madison, Wis.); host or cells: baculovirus-mediated expression system
test description: ERα binding assay: competition of [3H]E2 binding by competing estrogens
experimental parameters: read-out: ERα IC50

// worked examples, IC50 included
- molecule: "C[C@]12CC[C@@H]3c4ccc(OS(=O)(=O)O)cc4CC[C@H]3[C@@H]1CC[C@@H]2O [E2-3-sulfate, Estradiol 3-sulfate]"
  IC50: "> 1000 nM"
- molecule: "C[C@]12CC[C@@H]3c4ccc(O)cc4[C@H](O)C[C@H]3[C@@H]1CC[C@@H]2O [6β-OH-E2, 6β-Hydroxyestradiol]"
  IC50: "794 nM"

Item COc1cc2c(cc1O)[C@H]1CC[C@]3(C)[C@@H](O)CC[C@H]3[C@@H]1CC2 [2-OH-3-MeO-E2, 2-Hydroxyestradiol 3-methyl ether] : provide IC50
> 1000 nM

Item COc1cc2c(cc1O)[C@H]1CC[C@]3(C)C(=O)CC[C@H]3[C@@H]1CC2 [2-OH-3-MeO-E1, 2-Hydroxyestrone 3-methyl ether] : provide IC50
> 1000 nM

* * *

measured target: recombinant human ERβ (Homo sapiens)
Construct: purchased PanVera Corporation (Madison, Wis.); host or cells: baculovirus-mediated expression system
test description: ERβ binding assay: competition of [3H]E2 binding by competing estrogens
experimental parameters: read-out: ERβ IC50
measurement kind: pIC50
In simple prose, pIC50 is minus the logarithm base ten of a concentration in moles per litre.

// worked examples, pIC50 included
- molecule: "C[C@@]12C=CC[C@H]1[C@@H]1CCc3cc(O)ccc3[C@H]1CC2 [16-Estratetraen, 1,3,5(10),16-Estratetraen-3-ol]"
  measured target: "recombinant human ERβ (Homo sapiens)"
  measurement kind: "pIC50"
  quantitative result: 7.85
- molecule: "CC12CCC3c4ccc(O)cc4CCC3C1CC(=O)C2=O (stereo not shown) [16-Keto-E1, 16-Ketoestrone]"
  measured target: "recombinant human ERβ (Homo sapiens)"
  measurement kind: "pIC50"
  quantitative result: 7.05
- molecule: "C/C=C(/C(=C/C)c1ccc(O)cc1)c1ccc(O)cc1 [Dienestrol, reference compound]"
  measured target: "recombinant human ERβ (Homo sapiens)"
  measurement kind: "pIC50"
  quantitative result: 7.70
- molecule: "C[C@]12CC[C@@H]3c4ccc(O)cc4[C@H](O)C[C@H]3[C@@H]1CC[C@@H]2O [6β-OH-E2, 6β-Hydroxyestradiol]"
  measured target: "recombinant human ERβ (Homo sapiens)"
  measurement kind: "pIC50"
  quantitative result: 6.25

Continue with the molecule presented below.
Item Cc1cc(O)cc2c1[C@H]1CC[C@]3(C)[C@@H](O)CC[C@H]3[C@@H]1CC2 [1-Methyl-E2, 1-Methylestradiol] : provide pIC50
6.95

* * *

measured target: recombinant human ERα (Homo sapiens, UniProt P03372)
Construct: purchased PanVera Corporation (Madison, Wis.); host or cells: baculovirus-mediated expression system
Sequence (P03372 1-595): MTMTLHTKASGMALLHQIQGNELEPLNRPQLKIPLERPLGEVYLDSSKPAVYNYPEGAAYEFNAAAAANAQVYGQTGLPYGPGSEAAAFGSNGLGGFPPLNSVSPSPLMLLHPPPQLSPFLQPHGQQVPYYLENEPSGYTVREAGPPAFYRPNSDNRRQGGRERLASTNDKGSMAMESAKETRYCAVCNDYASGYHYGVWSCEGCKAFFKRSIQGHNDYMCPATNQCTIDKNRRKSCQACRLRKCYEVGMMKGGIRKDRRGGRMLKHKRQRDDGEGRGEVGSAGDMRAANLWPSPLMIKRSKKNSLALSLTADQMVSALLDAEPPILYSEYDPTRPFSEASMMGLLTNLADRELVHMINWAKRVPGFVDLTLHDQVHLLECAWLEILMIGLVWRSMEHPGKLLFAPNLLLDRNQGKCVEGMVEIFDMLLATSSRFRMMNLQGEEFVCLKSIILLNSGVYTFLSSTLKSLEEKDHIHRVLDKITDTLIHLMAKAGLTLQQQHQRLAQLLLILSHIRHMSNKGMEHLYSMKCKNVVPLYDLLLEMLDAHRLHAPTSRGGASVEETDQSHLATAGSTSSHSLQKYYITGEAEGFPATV
test description: ERα binding assay: competition of [3H]E2 binding by competing estrogens
experimental parameters: calculated against E2 = 100
measurement kind: RBAα % (relative binding affinity for ERα, of E2)

- molecule: "COc1c(O)ccc2c1CC[C@@H]1[C@@H]2CC[C@]2(C)[C@@H](O)[C@H](O)C[C@@H]12"
  result: "1%"

Item CC12CCC3c4ccc(O)c([N+](=O)[O-])c4CCC3C1CCC2=O (stereo not shown) [4-NO2-E1, 4-Nitroestrone] : provide RBAα % (relative binding affinity for ERα, of E2)
3%

Item C[C@]12CC[C@@H]3c4ccc(O)c(O)c4CC[C@H]3[C@@H]1CC[C@@H]2O [4-OH-E2, 4-Hydroxyestradiol] : provide RBAα % (relative binding affinity for ERα, of E2)
70%

Item C[C@]12CC[C@@H]3c4cc(O)c(O)cc4CC[C@H]3[C@@H]1CC[C@@H]2O [2-OH-E2, 2-Hydroxyestradiol] : provide RBAα % (relative binding affinity for ERα, of E2)
22%

Item CC12CCCC1C1CCc3cc(O)ccc3C1CC2 (stereo not shown) [17-Desoxy-E2, 17-Desoxyestradiol] : provide RBAα % (relative binding affinity for ERα, of E2)
16%

Item C[C@]12CC[C@@H]3c4ccc(O)cc4[C@H](O)C[C@H]3[C@@H]1CC[C@@H]2O [6β-OH-E2, 6β-Hydroxyestradiol] : provide RBAα % (relative binding affinity for ERα, of E2)
1%

Item C[C@]12CC[C@@H]3c4cc(O)c(O)cc4CC[C@H]3[C@@H]1C[C@@H](O)[C@@H]2O [2-OH-E3, 2-Hydroxyestriol] : provide RBAα % (relative binding affinity for ERα, of E2)
2%
